From: ChEMBL document CHEMBL2439947

# Test system: Candida albicans
# EXPERIMENT: Antifungal activity against Candida albicans ATCC 10231 assessed as ethanol level after 32 hrs by [1H] NMR spectroscopic analysis
# Format: functional
MEASURED_PARAMETER: Activity (µg/mL)
Numbers only; they are read as µg/mL.

Examples from the recorded data:
{"columns": ["COMPOUND", "UNIT_SPEC", "ASSAY_VALUE"],
 "data": [
  ["COc1ccc(C(=O)O[C@@](Cn2cncn2)(c2ccc(F)cc2F)[C@@H](C)c2ncncc2F)cc1 [VORICONAZOLE P-METHOXY BENZOATE]", "µg/mL", 2],
  ["C[C@@H](c1ncncc1F)[C@@](Cn1cncn1)(OC(=O)c1ccccc1)c1ccc(F)cc1F [VORICONAZOLE BENZOATE]", "µg/mL", 4],
  ["Cc1ccc(C(=O)O[C@@](Cn2cncn2)(c2ccc(F)cc2F)[C@@H](C)c2ncncc2F)cc1 [VORICONAZOLE TOLUATE]", "µg/mL", 4],
  ["C[C@@H](c1ncncc1F)[C@@](Cn1cncn1)(OC(=O)c1ccc([N+](=O)[O-])cc1)c1ccc(F)cc1F [VORICONAZOLE P-NITRO BENZOATE]", "µg/mL", 7]
]}

Now consider the entry below.
Problem: What does the data say about its Activity? Entry: C[C@@H](c1ncncc1F)[C@](O)(Cn1cncn1)c1ccc(F)cc1F
Result: 1
